Target: A2B receptor (Homo sapiens, UniProt P29275)
Sequence (P29275 whole entry): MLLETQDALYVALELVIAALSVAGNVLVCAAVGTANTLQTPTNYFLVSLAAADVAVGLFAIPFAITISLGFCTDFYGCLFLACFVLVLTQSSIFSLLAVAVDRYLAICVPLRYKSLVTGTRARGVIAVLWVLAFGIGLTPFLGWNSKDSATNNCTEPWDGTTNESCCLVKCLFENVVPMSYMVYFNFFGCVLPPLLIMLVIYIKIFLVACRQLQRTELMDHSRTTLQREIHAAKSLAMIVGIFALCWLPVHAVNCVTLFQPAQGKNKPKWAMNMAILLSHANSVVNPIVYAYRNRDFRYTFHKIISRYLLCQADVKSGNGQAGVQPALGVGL
Experiment: A2bR antagonism IC50, cAMP TR-FRET in HEK-293 cells, high concentration of adenosine (30 μM);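 note: compounds preincubated 10 min with cells, then adenosine stimulation 30 min at room temperature in buffer with Rolipram 100 µM and EHNA 30 µM, TR-FRET read after 1 h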
Conditions: A2BR IC50 (nM) (@30 μM Adenosine), HEK-293 cells expressing A2B receptor; agonist adenosine 30 μM; 2% HSA; inhibition of cAMP
Response field label: string, one of 1 (IC50 strictly below 2000 nM) or -1.

stdin: Bench note: check whether Cc1nn2c(N)c(C#N)c(NCCc3ccn(C4(CO)CC4)n3)nc2c1CC1CCC1 [Example 137] shows IC50 below 2000 nM
stdout: -1

stdin: Bench note: check whether Cc1nn2c(N)c(C#N)c(NCCc3cnn(C4(CO)CC4)c3)nc2c1Cl [Example 73] shows IC50 below 2000 nM
stdout: -1

stdin: Bench note: check whether CCCc1c(C)nn2c(N)c(C#N)c(NCCc3cccc(CO)n3)nc12 [Example 157] shows IC50 below 2000 nM
stdout: -1

stdin: Bench note: check whether CCc1c(C)nn2c(N)c(C#N)c(NCCc3ccn(C4(CO)CC4)n3)nc12 [Example 39] shows IC50 below 2000 nM
stdout: 1

stdin: Bench note: check whether CCc1c(C)nn2c(N)c(C#N)c(NCCc3cccc(CO[C@@H]4CCOC4)n3)nc12 [Example 166] shows IC50 below 2000 nM
stdout: 1

stdin: Bench note: check whether CCc1c(C)nn2c(N)c(C#N)c(NCCc3ccn(C4(CNCC[S+](C)[O-])CC4)n3)nc12 (single isomer, unassigned; (-)) [Example 163a] shows IC50 below 2000 nM
stdout: -1

stdin: Bench note: check whether CCc1c(C)nn2c(N)c(C#N)c(NCCc3cccn(CCO)c3=O)nc12 [Example 108] shows IC50 below 2000 nM
stdout: 1

stdin: Bench note: check whether Cc1nn2c(N)c(C#N)c(NCCc3ccn(C4COCC4CO)n3)nc2c1C (single isomer, unassigned; (-)) [Example 133b] shows IC50 below 2000 nM
stdout: -1

stdin: Bench note: check whether Cc1nn2c(N)c(C#N)c(NCCc3ccn(C4CCC4CO)n3)nc2c1C (single isomer, unassigned; (-)) [Example 104b] shows IC50 below 2000 nM
stdout: -1

stdin: Bench note: check whether CCc1c(C)nn2c(N)c(C#N)c(NCCc3cccn(CCC[S+](C)[O-])c3=O)nc12 (single isomer, unassigned; (-)) [Example 154a] shows IC50 below 2000 nM
stdout: 1

stdin: Bench note: check whether Cc1nn2c(N)c(C#N)c(NCCc3ccn(C4(CO)CC4)n3)nc2c1C [Example 55] shows IC50 below 2000 nM
stdout: -1

stdin: Bench note: check whether CCc1c(C)nn2c(N)c(C#N)c(NCCc3cccn(CCC[S+](C)[O-])c3=O)nc12 (single isomer, unassigned; (+)) [Example 154b] shows IC50 below 2000 nM
stdout: 1

stdin: Bench note: check whether CCc1c(C)nn2c(N)c(C#N)c(NCCc3cccn(CCSC)c3=O)nc12 [Example 142] shows IC50 below 2000 nM
stdout: 1

These entries and their values trace back to patent US12577247B2.
